Molecular target: T1, hIL-3 receptor (human, UniProt P26951)
T1 sequence: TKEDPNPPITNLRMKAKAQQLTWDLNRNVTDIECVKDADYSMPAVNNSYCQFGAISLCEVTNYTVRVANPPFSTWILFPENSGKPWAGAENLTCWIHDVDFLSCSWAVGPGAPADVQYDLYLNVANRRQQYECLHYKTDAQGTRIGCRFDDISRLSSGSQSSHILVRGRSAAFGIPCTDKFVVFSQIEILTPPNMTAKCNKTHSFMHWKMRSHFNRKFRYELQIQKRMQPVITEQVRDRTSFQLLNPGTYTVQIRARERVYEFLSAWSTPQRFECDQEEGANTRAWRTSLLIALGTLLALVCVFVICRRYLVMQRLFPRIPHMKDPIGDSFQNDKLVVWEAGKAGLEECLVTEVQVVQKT
Assay: cell-based or functional assay
measurement_kind: Relative Biological Activity (AML 193 proliferation)

Here's what some known entries look like.
>>> reported_result("pMON13396 polypeptide (ligand) MANCSIMIDEIIHHLKRPPAPLLDPNNLNAEDVDILMERNLRLPNLESFVRAVKNLENASGIEAILRNLQPCLPSATAAPSRHPIIIRMGDWQEFREKLTFYLVTLEQAQEQQ")
"20 EC50 (1-133)hIL-3 / EC50 mutant"
>>> reported_result("pMON13302 polypeptide (ligand) MANCSIMIDEIIHHLKRPPNPLLDPNNLNSEDMDILMERNLRTPNLLAFVRAVKHLENASAIESILKNLLPCLPLATAAPTRHPIHIKDGDWNEFRRKLTFYLKTLENAQAQQ")
"1.2 EC50 (1-133)hIL-3 / EC50 mutant"
>>> reported_result("pMON13432 polypeptide (ligand) MANCSIMIDEAIHHLKRPPAPSLDPNNLNDEDMSILMDRNLRLPNLESFVRAVKNLENASGIEAILRNLQPCLPSATAAPSRHPIIIKAGDWQEFREKLTFYLVTLEQAQEQQ")
"10 EC50 (1-133)hIL-3 / EC50 mutant"
>>> reported_result("pMON13390 polypeptide (ligand) MAYPETDYKDDDDKNCSIMIDEIIHHLKRPPNPLLDPNNLNSEDMDILMERNLRTPNLLAFVRAVKHLENASGIEAILRNLQPCLPSATAAPSRHPIIIKAGDWQEFREKLTFYLVTLEQAQEQQ")
"20 EC50 (1-133)hIL-3 / EC50 mutant"
>>> reported_result("pMON13384 polypeptide (ligand) MANCSIMIDEIIHHLKRPPAPLLDPNNLNAEDVDILMERNLRLPNLESFVRAVKNLENASGIEAILRNLQPCLPSATAAPSRHPIIIKAGDWQEFREKLQFYLVTLEQAQEQQ")
"0.25 EC50 (1-133)hIL-3 / EC50 mutant"

Provide Relative Biological Activity (AML 193 proliferation) values for the following items, in order.
1. pMON13385 polypeptide (ligand) MANCSIMIDEIIHHLKVPPRPSLDPNNLNAEDVDILMERNLRLPNLESFVRAVKNLENASGIEAILRNLQPCLPSATAAPSRHPIIIKAGDWQEFREKLTFYLVTLEQAQEQQ
2. pMON13370 polypeptide (ligand) MANCSIMIDEIIHHLKRPPAPLLDPNNLNAEDMSILMDRNLRLPNLESFVRAVKNLENASGIEAILRNLQPCLPSATAAPSRHPIIIKAGDWQEFREKLTFYLVTLEQAQEQQ
3. pMON13475 polypeptide (ligand) MANCSIMIDEAIHHLKRPPAPLLDPNNLNDEDVSILMDRNLRLPNLESFVRAVKNLENASGIEAILRNLQPCLPSATAAPSRHPIIIKAGDWQEFREKLTFYLVTLEQAQEQQ
4. pMON13373 polypeptide (ligand) MANCSIMIDEIIHHLKRPPAPLLDPNNLNDEDMSILMDRNLRLPNLESFVRAVKNLENASGIEAILRNLQPCLPSATAAPSRHPIIIKAGDWQEFREKLTFYLVTLEQAQEQQ

Output:
1. 1 EC50 (1-133)hIL-3 / EC50 mutant
2. 6 EC50 (1-133)hIL-3 / EC50 mutant
3. 7 EC50 (1-133)hIL-3 / EC50 mutant
4. 12 EC50 (1-133)hIL-3 / EC50 mutant

Provide Relative Biological Activity (AML 193 proliferation) values for the following items, in order.
1. pMON13419 polypeptide (ligand) MANCSIMIDEIIHHLKRPPNPLLDPNNLNSEDMDILMDSNLLTPNLLAFPHASKQLENASGIEAILRNLQPCLPSATAAPSRHPIIIKAGDWQEFRLKLQFYLSSLEQAQEQQ
2. pMON13388 polypeptide (ligand) MANCSIMIDEIIHHLKRPPAPLLDPNNLNAEDVDILMDRNLRLSNLESFVRAVKNLENASGIEAILRNLQPCLPSATAAPSRHPIIIKAGDWQEFREKLTFYLVTLEQAQEQQ
3. pMON13410 polypeptide (ligand) MANCSIMIDEIIHHLKRPPNPLLDPNNLNSEDMDILDERNLRTPNLLAFVRAVKHLENASGIEAILRNLQPCLPSATAAPSRHPIIIKAGDWQEFREKLTFYLVTLEQAQEQQ
4. pMON13415 polypeptide (ligand) MANCSIIIDEIIHHLKRPPNPLLDPNNLNSEDVDILMERNLRTPNLLAFVRAVKHLENASGIEAILRNLQPCLPSATAAPSRHPIIIKAGDWQEFREKLTFYLVTLEQAQEQQ
5. pMON13329 polypeptide (ligand) MANCSNMIDEIITHLKQPPLPLLDFNNLNDEDMSILMENNLRRPNLEAFNRAVKSLQNASAIESILKNLLPCLPLATAAPTRHPIIIRDGDWNEFRRKLTFYLWTLENAQAQQ
6. pMON13325 polypeptide (ligand) MANCSNMIDEIITHLKQPPLPLLDFNNLNDEDMSILMENNLRRPNLEAFNRAVKSLQNASAIESILKNLLPCLPLATAAPTRHPIHIKDGDWNEFRRKLTFYLWTLENAQAQQ
7. pMON13402 polypeptide (ligand) MANCSIMIDELIHHLKIPPNPSLDSANLNSEDVSILMERNLRTPNLLAFVRAVKHLENASGIEAILRNLQPCLPSATAAPSRHPIIIKAGDWQEFREKLTFYLVTLEQAQEQQ

Output:
1. 0.015 EC50 (1-133)hIL-3 / EC50 mutant
2. 23 EC50 (1-133)hIL-3 / EC50 mutant
3. 0.4 EC50 (1-133)hIL-3 / EC50 mutant
4. 4 EC50 (1-133)hIL-3 / EC50 mutant
5. 10 EC50 (1-133)hIL-3 / EC50 mutant
6. 8 EC50 (1-133)hIL-3 / EC50 mutant
7. 20 EC50 (1-133)hIL-3 / EC50 mutant

From: patent US6051217
